# Subject of test: Aurora kinase B (Homo sapiens) (UniProt Q96GD4)
# Sequence (Q96GD4 whole entry, looked up): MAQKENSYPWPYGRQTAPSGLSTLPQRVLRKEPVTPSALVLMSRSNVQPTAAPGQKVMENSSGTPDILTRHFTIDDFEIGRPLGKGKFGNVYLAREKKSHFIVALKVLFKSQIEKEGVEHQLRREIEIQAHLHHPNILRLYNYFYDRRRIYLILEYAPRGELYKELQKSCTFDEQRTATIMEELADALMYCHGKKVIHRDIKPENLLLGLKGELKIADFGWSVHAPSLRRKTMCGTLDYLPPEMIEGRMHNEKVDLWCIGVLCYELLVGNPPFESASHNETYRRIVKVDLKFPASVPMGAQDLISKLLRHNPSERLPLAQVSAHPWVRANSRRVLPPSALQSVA
# Test summary: AURKB enzyme activity inhibitors – biochemical, scintillation, dry powder, set 3, counter-screen for STK33 inhibitor project, dose response (AID 588808)
# Details: Recombinant Aurora B, 33P-ATP filter-binding scintillation; at 10 µM (top of the series)
Activity calls are given as the source filed them.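 The calls were made as follows: active = Aurora B inhibition with potency within ten times the top dose, in every repeat test; inconclusive = repeat tests disagree in their calls; inactive = every repeat test inactive.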
Readout name: activity change, negative = inhibition

These solved cases illustrate the format of a correct answer.
Which activity change, negative = inhibition is listed for O=C(Nc1ccc(OC(F)(F)F)cc1-c1nc2ccccc2[nH]c1=O)c1cccs1 ? inactive

Likewise for O=C(Nc1cc(F)ccc1-c1nc2ccccc2[nH]c1=O)c1cccs1 ? inactive

Likewise for O=C(Nc1ccccc1-c1nc2ccccc2[nH]c1=O)c1cccc(Cl)c1 ? inactive

Likewise for COc1ccc(NC(=O)c2cccs2)c(-c2nc3ccccc3[nH]c2=O)c1 ? inactive

Likewise for O=C(Nc1ccccc1-c1nc2ccccc2[nH]c1=O)c1cccs1 ? inactive

Further cases:
Which activity change, negative = inhibition is listed for O=C(Nc1ccc(Cl)cc1-c1nc2ccccc2[nH]c1=O)c1cccs1 ? inactive

Likewise for COc1ccc(C(=O)Nc2ccccc2-c2nc3ccccc3[nH]c2=O)cc1 ? inactive

Likewise for O=C(Nc1cc(Cl)ccc1-c1nc2ccccc2[nH]c1=O)c1cccs1 ? inactive

Likewise for O=C(Nc1ccc(F)cc1-c1nc2ccccc2[nH]c1=O)c1cccs1 ? inactive

---

# Subject of test: Aurora kinase B (Homo sapiens)
# Test summary: AURKB enzyme activity inhibitors – biochemical, scintillation, dry powder, set 3, counter-screen for STK33 inhibitor project, dose response (AID 588808)
# Details: Recombinant Aurora B, 33P-ATP filter-binding scintillation; at 10 µM (top of the series)
Calls of active or inactive are those of the source.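 The calls were made as follows: active = Aurora B inhibition with potency within ten times the top dose, in every repeat test; inconclusive = repeat tests disagree in their calls; inactive = every repeat test inactive.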
Readout name: activity change, negative = inhibition

Hi! What's the reported activity change, negative = inhibition for O=C(Nc1ccccc1-c1nc2ccccc2[nH]c1=O)c1ccccn1 on Aurora kinase B (Homo sapiens)? inactive

Likewise for O=C(Nc1ccccc1-c1nc2ccccc2[nH]c1=O)c1ccc(F)cc1 ? inactive

Likewise for O=C(Nc1ccccc1-c1nc2ccccc2[nH]c1=O)c1cccnc1 ? inactive
